# testTarget: IKZF2 (Helios) (Homo sapiens, UniProt Q96SW2+Q9UKS7)
# Sequence (Q9UKS7 whole entry): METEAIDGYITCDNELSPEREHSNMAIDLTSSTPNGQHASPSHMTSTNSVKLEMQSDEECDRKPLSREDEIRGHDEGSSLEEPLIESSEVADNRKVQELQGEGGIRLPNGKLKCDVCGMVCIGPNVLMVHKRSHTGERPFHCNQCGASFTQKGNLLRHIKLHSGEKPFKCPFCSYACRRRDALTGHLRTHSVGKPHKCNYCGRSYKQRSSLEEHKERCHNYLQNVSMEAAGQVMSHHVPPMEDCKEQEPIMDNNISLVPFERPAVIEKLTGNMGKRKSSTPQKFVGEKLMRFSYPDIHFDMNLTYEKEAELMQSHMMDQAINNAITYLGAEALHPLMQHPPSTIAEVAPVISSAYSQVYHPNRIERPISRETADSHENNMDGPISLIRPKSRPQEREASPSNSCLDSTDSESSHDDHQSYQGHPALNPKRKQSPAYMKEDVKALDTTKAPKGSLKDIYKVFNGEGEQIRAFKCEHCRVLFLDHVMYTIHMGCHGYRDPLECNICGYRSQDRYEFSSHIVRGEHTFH
# Sequence (Q96SW2 whole entry): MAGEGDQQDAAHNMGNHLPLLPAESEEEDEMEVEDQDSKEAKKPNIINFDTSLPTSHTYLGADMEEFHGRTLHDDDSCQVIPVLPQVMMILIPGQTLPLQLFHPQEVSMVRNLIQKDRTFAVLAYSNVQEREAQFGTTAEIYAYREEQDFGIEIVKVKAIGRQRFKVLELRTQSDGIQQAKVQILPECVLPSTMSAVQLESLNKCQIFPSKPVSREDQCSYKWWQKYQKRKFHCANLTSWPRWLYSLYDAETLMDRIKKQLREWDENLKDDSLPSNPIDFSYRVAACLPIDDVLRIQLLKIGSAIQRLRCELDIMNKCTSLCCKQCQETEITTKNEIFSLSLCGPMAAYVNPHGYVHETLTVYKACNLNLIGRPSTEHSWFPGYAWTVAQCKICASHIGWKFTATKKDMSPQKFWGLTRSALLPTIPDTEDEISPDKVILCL
# Sequence (Q16531 whole entry partner): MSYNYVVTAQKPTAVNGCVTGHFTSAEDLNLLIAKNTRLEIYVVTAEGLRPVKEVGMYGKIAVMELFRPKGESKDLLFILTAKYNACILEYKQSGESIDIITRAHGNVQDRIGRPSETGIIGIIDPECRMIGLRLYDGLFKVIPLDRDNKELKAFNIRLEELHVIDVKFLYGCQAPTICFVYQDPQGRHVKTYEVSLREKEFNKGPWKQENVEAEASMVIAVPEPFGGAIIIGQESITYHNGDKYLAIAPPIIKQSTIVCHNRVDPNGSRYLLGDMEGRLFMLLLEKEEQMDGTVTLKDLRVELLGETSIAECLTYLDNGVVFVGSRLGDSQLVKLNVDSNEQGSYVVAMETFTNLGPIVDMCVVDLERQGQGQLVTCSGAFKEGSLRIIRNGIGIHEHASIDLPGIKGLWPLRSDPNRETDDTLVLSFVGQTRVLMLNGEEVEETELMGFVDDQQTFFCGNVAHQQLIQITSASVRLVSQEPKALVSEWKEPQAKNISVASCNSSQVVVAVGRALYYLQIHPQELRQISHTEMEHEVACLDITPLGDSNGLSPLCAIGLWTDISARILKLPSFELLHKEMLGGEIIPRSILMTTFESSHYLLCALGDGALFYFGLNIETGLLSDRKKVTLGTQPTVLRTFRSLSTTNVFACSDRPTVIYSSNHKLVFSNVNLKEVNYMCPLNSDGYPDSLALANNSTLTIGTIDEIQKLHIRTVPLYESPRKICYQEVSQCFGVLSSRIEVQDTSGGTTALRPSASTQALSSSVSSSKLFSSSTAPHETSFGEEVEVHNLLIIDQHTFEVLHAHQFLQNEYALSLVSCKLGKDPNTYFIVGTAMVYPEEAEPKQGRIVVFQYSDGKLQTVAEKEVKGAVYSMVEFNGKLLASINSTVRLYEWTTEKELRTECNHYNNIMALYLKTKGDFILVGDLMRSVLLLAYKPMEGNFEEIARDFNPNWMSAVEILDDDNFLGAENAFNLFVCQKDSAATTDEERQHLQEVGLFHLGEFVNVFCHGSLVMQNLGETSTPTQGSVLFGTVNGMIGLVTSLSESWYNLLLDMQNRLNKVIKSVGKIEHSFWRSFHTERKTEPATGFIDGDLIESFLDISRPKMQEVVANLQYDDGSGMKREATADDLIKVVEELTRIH
# testProtocol: Prolabel quantification of IKZF2 protein levels in 293GT cells
# Assay type: cell-based
# testContext: 24 h, Pro-label assay, 293GT cells, 10 μM, read-out: IKZF2 % protein reduction at 10 μM, 24 h
reportedEndpoint: IKZF2 % protein reduction at 10 µM (%)

* CC(C)(O)CN[C@H]1CCCC[C@@H]1Oc1ccc2c(c1)CN(C1CCC(=O)NC1=O)C2=O (stereo partly drawn) | 60
* O=C1CCC(N2Cc3cc(O[C@H]4CCCC[C@@H]4NCC4COC4)ccc3C2=O)C(=O)N1 (stereo partly drawn) | 85
* O=C1CCC(N2Cc3cc(O[C@H]4CC[C@@H]4NCc4ccccc4)ccc3C2=O)C(=O)N1 (single isomer, unassigned) | 42
* O=C1CCC(N2Cc3cc(O[C@H]4CCC[C@@H]4NCc4ccncc4)ccc3C2=O)C(=O)N1 (stereo partly drawn) | 53
* CC(C)n1cc(CN[C@H]2CCCC[C@@H]2Oc2ccc3c(c2)CN(C2CCC(=O)NC2=O)C3=O)cn1 (stereo partly drawn) | 86
* O=C1CCC(N2Cc3cc(O[C@H]4CCC[C@@H]4N4CCCC4)ccc3C2=O)C(=O)N1 (stereo partly drawn) | 83
* CO[C@H]1CCN(C2CCCC2Oc2ccc3c(c2)CN(C2CCC(=O)NC2=O)C3=O)C1 (single isomer, unassigned) | 79
* O=C1CCC(N2Cc3cc(OC4CCCCC4N4CCC(F)(F)C4)ccc3C2=O)C(=O)N1 (single isomer, unassigned) | 56
* O=C1CCC(N2Cc3cc(O[C@H]4CCCC[C@@H]4NCC45CC(F)(C4)C5)ccc3C2=O)C(=O)N1 (stereo partly drawn) | 81
* O=C1CCC(N2Cc3cc(O[C@H]4CCCC[C@H]4NCc4ccccc4)ccc3C2=O)C(=O)N1 (stereo partly drawn) | 10
* O=C1CCC(N2Cc3cc(O[C@H]4CCCC[C@@H]4N4CC(OCC(F)(F)F)C4)ccc3C2=O)C(=O)N1 (stereo partly drawn) | 86
* COc1ccccc1OC1CN([C@H]2CCC[C@@H]2Oc2ccc3c(c2)CN(C2CCC(=O)NC2=O)C3=O)C1 (stereo partly drawn) | 92
* O=C1CCC(N2Cc3cc(O[C@H]4CCCC[C@@H]4NCCO)ccc3C2=O)C(=O)N1 (stereo partly drawn) | 58
* COC1CN([C@H]2CCC[C@@H]2Oc2ccc3c(c2)CN(C2CCC(=O)NC2=O)C3=O)C1 (stereo partly drawn) | 61
* CO[C@H]1CCC[C@@H]1N[C@H]1CCCC[C@@H]1Oc1ccc2c(c1)CN(C1CCC(=O)NC1=O)C2=O (single isomer, unassigned) | 59

----------
# testTarget: IKZF2 (Helios) (Homo sapiens, UniProt Q96SW2+Q9UKS7)
# testProtocol: Prolabel quantification of IKZF2 protein levels in 293GT cells
# Assay type: cell-based
# testContext: 24 h, Pro-label assay, 293GT cells, 10 μM, read-out: IKZF2 % protein reduction at 10 μM, 24 h
reportedEndpoint: IKZF2 % protein reduction at 10 µM (%)

• CCN(C[C@H]1C[C@@H](OC)C1)[C@H]1CCC[C@@H]1Oc1ccc2c(c1)CN(C1CCC(=O)NC1=O)C2=O (stereo partly shown) = 81
• COC1CN([C@H]2CCCC[C@@H]2Oc2ccc3c(c2)CN(C2CCC(=O)NC2=O)C3=O)C1 (stereo partly shown) = 82
• CCN(CC)[C@@H]1CCC[C@H]1Oc1ccc2c(c1)CN(C1CCC(=O)NC1=O)C2=O (stereo partly shown) = 0
• CCN(CC)C1CC(C)(C)CC1Oc1ccc2c(c1)CN(C1CCC(=O)NC1=O)C2=O (mixture of isomers) = 58
• CN(Cc1ccc(C#N)cc1)[C@H]1CCCC[C@@H]1Oc1ccc2c(c1)CN(C1CCC(=O)NC1=O)C2=O (stereo partly shown) = 50
• O=C1CCC(N2Cc3cc(O[C@H]4CCCC[C@@H]4NC4CC5(CCOCC5)C4)ccc3C2=O)C(=O)N1 (stereo partly shown) = 89
• CCN(CC)[C@H]1CCC[C@@H]1Oc1ccc2c(c1F)CN(C1CCC(=O)NC1=O)C2=O (stereo partly shown) = 40
• CC(C)OC1CN([C@H]2CCCC[C@@H]2Oc2ccc3c(c2)CN(C2CCC(=O)NC2=O)C3=O)C1 (stereo partly shown) = 88
• N[C@H]1COC[C@@H]1Oc1ccc2c(c1)CN(C1CCC(=O)NC1=O)C2=O (stereo partly shown) = 0
• N#Cc1cccc(CN[C@H]2CCCC[C@@H]2Oc2ccc3c(c2)CN(C2CCC(=O)NC2=O)C3=O)c1 (stereo partly shown) = 80
• N#Cc1ccc(CN[C@H]2CCCC[C@@H]2Oc2ccc3c(c2)CN(C2CCC(=O)NC2=O)C3=O)cc1 (stereo partly shown) = 70
• O=C1CCC(N2Cc3cc(O[C@H]4CCCC[C@@H]4O)ccc3C2=O)C(=O)N1 (stereo partly shown) = 50
• CC1(C)CC(CN[C@H]2CCCC[C@@H]2Oc2ccc3c(c2)CN(C2CCC(=O)NC2=O)C3=O)CCO1 (stereo partly shown) = 89
• COc1ccc(CN[C@H]2CCCC[C@@H]2Oc2ccc3c(c2)CN(C2CCC(=O)NC2=O)C3=O)cn1 (stereo partly shown) = 60
• COc1ccccc1OC1CN([C@H]2CCCC[C@@H]2Oc2ccc3c(c2)CN(C2CCC(=O)NC2=O)C3=O)C1 (stereo partly shown) = 93
• CCN(C)[C@H]1c2ccccc2C[C@@H]1Oc1ccc2c(c1)CN(C1CCC(=O)NC1=O)C2=O (stereo partly shown) = 71
• CCOC1CN([C@H]2CCCC[C@@H]2Oc2ccc3c(c2)CN(C2CCC(=O)NC2=O)C3=O)C1 (stereo partly shown) = 89
• O=C1CCC(N2Cc3cc(O[C@H]4CCCCC[C@@H]4N4CC5(COC5)C4)ccc3C2=O)C(=O)N1 (stereo partly shown) = 85
• CC1(O)CN([C@H]2CCC[C@@H]2Oc2ccc3c(c2)CN(C2CCC(=O)NC2=O)C3=O)C1 (stereo partly shown) = 77
• O=C1CCC(N2Cc3cc(O[C@H]4CCC[C@@H]4N4CCCOCC4)ccc3C2=O)C(=O)N1 (stereo in doubt) = 66
• CN[C@H]1CCCC[C@@H]1Oc1ccc2c(c1)CN(C1CCC(=O)NC1=O)C2=O (stereo partly shown) = 80
• O=C1CCC(N2Cc3cc(O[C@H]4CCC[C@@H]4N4CCC(F)(F)CC4)ccc3C2=O)C(=O)N1 (stereo partly shown) = 50
• O=C1CCC(N2Cc3cc(O[C@H]4CCC[C@@H]4N4CC5CCC(C5)C4)ccc3C2=O)C(=O)N1 (stereo partly shown) = 85
• CCCN[C@H]1CCCC[C@@H]1Oc1ccc2c(c1)CN(C1CCC(=O)NC1=O)C2=O (stereo partly shown) = 88
• CC(C)(O)CCN[C@H]1CCCC[C@@H]1Oc1ccc2c(c1)CN(C1CCC(=O)NC1=O)C2=O (stereo partly shown) = 76
• CCOC1CN([C@H]2CCCCC[C@@H]2Oc2ccc3c(c2)CN(C2CCC(=O)NC2=O)C3=O)C1 (stereo partly shown) = 91
• N#CC12CC(CN[C@H]3CCCC[C@@H]3Oc3ccc4c(c3)CN(C3CCC(=O)NC3=O)C4=O)(C1)C2 (stereo partly shown) = 66
• O=C1CCC(N2Cc3cc(O[C@H]4CCC[C@@H]4N4CCCOCCC4)ccc3C2=O)C(=O)N1 (stereo partly shown) = 75
• CCN(C)[C@H]1CCC[C@@H]1Oc1ccc2c(c1)CN(C1CCC(=O)NC1=O)C2=O (stereo partly shown) = 81
• CC1(C#N)CC(CN[C@H]2CCCC[C@@H]2Oc2ccc3c(c2)CN(C2CCC(=O)NC2=O)C3=O)C1 (single isomer, unassigned) = 84
• O=C1CCC(N2Cc3cc(O[C@H]4CCCC[C@@H]4N(Cc4ccccc4)Cc4ccccc4)ccc3C2=O)C(=O)N1 (stereo partly shown) = 0
